# Tested on: C57BL/6 (B6) male mice
# experiment.notes: Blood counts in the tolerability study
# Assay type: in vivo
# condition.description: mice, 50 mg/kg p.o. days 0, 3, 5; blood day 8; AVG; unit assumed
# Method: Compounds were dissolved in 20 μL DMSO and completed into 200 μL with corn oil. During the experiments, mice behavior and possible apparent signs of toxicity were monitored daily. The body weights were determined on days 0, 4, and 8. On day 8, blood (25 μL) was withdrawn using a capillary pipette containing anticoagulant (heparin) from the retroorbital sinus into EDTA-containing tubes. Basic hematological parameters were measured using the Mindray BC-5300 Vet. […]
readout.kind: Mon

Req: For CC(C)n1nc(-c2cc3cc(O)ccc3[nH]2)c2c(N)ncnc21 , what is its reported Mon?
Resp: 1.09 10^9/L
